Study target: T1, factor VIIa-tissue factor complex (human recombinant factor VIIa with recombinant soluble human tissue factor) (human, UniProt P08709 61-466; P13726 33-251, limits assumed)
T1 construct: The complex was formed from 50 nM factor VIIa and 100 nM soluble tissue factor in 5 mM CaCl2; Factor VIIa is itself a two-chain enzyme; also called FVIIa-TF; VIIa-TF
T1 sequence (P08709 61-466 limits assumed, chain 1 of 2): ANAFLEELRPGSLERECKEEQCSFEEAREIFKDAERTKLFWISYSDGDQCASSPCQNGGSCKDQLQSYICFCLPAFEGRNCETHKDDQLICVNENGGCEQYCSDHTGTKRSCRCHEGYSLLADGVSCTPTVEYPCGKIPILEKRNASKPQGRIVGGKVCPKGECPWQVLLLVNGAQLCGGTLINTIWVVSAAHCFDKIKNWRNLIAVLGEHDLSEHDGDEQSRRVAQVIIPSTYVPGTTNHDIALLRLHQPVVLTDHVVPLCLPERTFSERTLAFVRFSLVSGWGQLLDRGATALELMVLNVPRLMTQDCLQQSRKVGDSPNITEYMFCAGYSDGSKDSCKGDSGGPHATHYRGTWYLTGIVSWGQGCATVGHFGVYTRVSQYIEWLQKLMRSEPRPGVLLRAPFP
T1 sequence (P13726 33-251 limits assumed, chain 2 of 2): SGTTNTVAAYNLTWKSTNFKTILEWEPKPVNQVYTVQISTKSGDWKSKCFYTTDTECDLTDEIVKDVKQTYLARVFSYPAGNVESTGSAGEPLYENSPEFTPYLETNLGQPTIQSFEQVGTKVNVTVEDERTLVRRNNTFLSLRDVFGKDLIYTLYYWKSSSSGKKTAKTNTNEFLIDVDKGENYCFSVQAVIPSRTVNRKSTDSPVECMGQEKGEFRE
Assay summary: chromogenic (S-2288) amidolytic inhibition assay, FVIIa 50 nM / soluble TF 100 nM
Collected log10(Ki) values appear next to each entry.
Response schema: value (number) is log10 of Ki in units of nM.

These recorded examples may help you get a feel for the data.
{"Binder": "R29K KD1 (other, Point mutant of His-tagged KD1, KD1 numbering; also called R29K (R20K); not shown: N-terminal decahistidine-tag leader and enterokinase cleavage site from pET19b) DAAQEPTGNNAEICLLPLDYGPCRALLLKYYYDRYTQSCRQFLYGGCEGNANNFYTWEACDDACWRIEKVPKV", "log10(Ki)": 3.05}
{"Binder": "D19A KD1 (other, Point mutant of His-tagged KD1, KD1 numbering; also called D19A (D10A); not shown: N-terminal decahistidine-tag leader and enterokinase cleavage site from pET19b) DAAQEPTGNNAEICLLPLAYGPCRALLLRYYYDRYTQSCRQFLYGGCEGNANNFYTWEACDDACWRIEKVPKV", "log10(Ki)": 3.29}
{"Binder": "R24K KD1 (other, also called R24K (R15K); R24K KD1 polypeptide; not shown: N-terminal extension from the expression vector) DAAQEPTGNNAEICLLPLDYGPCKALLLRYYYDRYTQSCRQFLYGGCEGNANNFYTWEACDDACWRIEKVPKV", "log10(Ki)": 3.93}

stdin: Need log10(Ki) of G21D KD1 (other, Point mutant of His-tagged KD1, KD1 numbering; also called G21D (G12D); not shown: N-terminal decahistidine-tag leader and enterokinase cleavage site from pET19b) DAAQEPTGNNAEICLLPLDYDPCRALLLRYYYDRYTQSCRQFLYGGCEGNANNFYTWEACDDACWRIEKVPKV , thanks.
stdout: 4.41

stdin: # log10(Ki) lookup, item wild-type first Kunitz-type domain (KD1) of human TFPI-2, His-tagged, E. coli (other, the monomer was purified; also called wild-type KD1; TFPI-2 KD1; not shown: N-terminal decahistidine-tag leader and enterokinase cleavage site from pET19b) DAAQEPTGNNAEICLLPLDYGPCRALLLRYYYDRYTQSCRQFLYGGCEGNANNFYTWEACDDACWRIEKVPKV
stdout: 3.21

The origin of these recorded values is patent US20090099087A1.
